This listing pairs variants with measured yeast fitness.
B1: tRNA (parent)
chain: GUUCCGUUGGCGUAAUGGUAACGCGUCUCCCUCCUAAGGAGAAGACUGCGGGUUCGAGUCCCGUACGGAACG

- Variants of: B1
- test_name: yeast fitness relative to wild type (ratio to wild type); higher = fitter; tRNA-Arg(CCU), competitive growth, 37 C, YPD
Fewer inactive variants are shown than the library holds.
Give only the figure.

sequence_content: GGUCCGUUGGCGUAAUGGUAACGCGUCUCCCUCCUAAGGAGAAGAAUGCGGGUUCGAGUCCCCUACGGAACG [U2G C46A G63C]
yeast fitness: 0.56
//
sequence_content: GUUCCAUUGGCGUAAUGGUAACGCGUCUCCCUCCUAAGGAGAAGACUGCGGGUUUGAGUCCCGUACGGAACG [G6A C55U]
yeast fitness: 0.677
//
sequence_content: GUUCAGUUGGCGUAAUGGUAACGCGUCUCCCUCCUAAGGUGAAGACUGCGGGUUCGAGUCCCGUACCGAACG [C5A A40U G67C]
yeast fitness: 0.627
//
sequence_content: GCUCCGUUGGCGUAAUGGUAACGCGUCUCCCUCCUAAGGAGAAGACUGCGGGUUCGAGUCCCGUACGGACCG [U2C A70C]
yeast fitness: 0.972
//
sequence_content: GUUCUGUUGGCGUUAUGGUAACGCGUCUCCAUCCUAAGGAGAAGAUUAUGGGUUCGAGUCCCGUACGGAACG [C5U A14U C31A C46U G48A C49U]
yeast fitness: 0.568

Measured yeast fitness of GUUCCGUUGGCGUAAUGGUAACGCGUCUCCCUCCUAAGGCGAAGACUGCGGGUUAGAGUCCCGUAAGGAACG [A40C C55A C66A] : 0.578

Measured yeast fitness of GUUCCGUUCGCGUAGUGGUAACGCGUCUCCCUCCUAAGGAGAAGACUGAGGGUUCGAGUCCCGUACGGAACG [G9C A15G C49A] : 0.601

Measured yeast fitness of GUUCCGUUGGCGUAAUGGUAACGCCUCUCCCUCCUAAGGCGAAGACUGCGGGUUCGAGUCCCAUACGGAACG [G25C A40C G63A] : 0.69

Measured yeast fitness of GUUCCGUUGGGGUAAUGGUAACGCGUCUCCCUCCUUAGGCGAAGACUGCGGGUUCGAGUCCCGUACGGAACG [C11G A36U A40C] : 0.612

Measured yeast fitness of GAUCUGUUGGCGUAAUGGUAACGCGUCUCCCUCCUAAGGAGAAGACUGCGGGUUCGAGUCCCGUACGGCACG [U2A C5U A69C] : 0.687

Origin of values: the RNAGym collection of RNA variant scans (doi:10.1126/science.aae0568)
